Item-by-item account of MIC
System: Psdm. aerug. Walter
testDescription: MIC, liquid medium test tube series dilution test
Format: cell-based, Pseudomonas aerug.
runParameters: 24 hours, 37°C

These solved cases illustrate the format of a correct answer.
# molecule, parameterMeasured, measurement
records = [
    ("CC1(C)S[C@@H]2[C@H](NC(=O)[C@H](NC(=O)N3CCCCCC3=O)c3ccccc3)C(=O)N2[C@H]1C(=O)O", "MIC", "100-500 units/ml"),
    ("CN(C(=O)Cc1ccc([N+](=O)[O-])cc1)C(=O)N[C@@H](C(=O)N[C@@H]1C(=O)N2[C@@H]1SC(C)(C)[C@@H]2C(=O)O)c1ccccc1", "MIC", "4-20 units/ml"),
]

Consider now this further molecule.
Cc1noc(C)c1C(=O)N(C)C(=O)N[C@@H](C(=O)N[C@@H]1C(=O)N2[C@@H]1SC(C)(C)[C@@H]2C(=O)O)c1ccccc1 yielded MIC of 20-100 units/ml

---

Item-by-item account of MIC
Tested on: Psdm. aerug. Bonn
testDescription: MIC, liquid medium test tube series dilution test
Assay type: cell-based, Pseudomonas aerug.
runParameters: 24 hours, 37°C
The reply should be a number in units/ml, with the unit left off.

These solved cases illustrate the format of a correct answer.
# molecule, target, MIC, units/ml
records = [
    ("Cc1ccc(C(NC(=O)N2CCNC2=O)C(=O)N[C@@H]2C(=O)N3[C@@H]2SC(C)(C)[C@@H]3C(=O)O)cc1 (stereo partly drawn) [Example 45]", "Psdm. aerug. Bonn", 25),
    ("COc1ccc(C(=O)N(C)C(=O)N[C@@H](C(=O)N[C@@H]2C(=O)N3[C@@H]2SC(C)(C)[C@@H]3C(=O)O)c2ccccc2)cc1[N+](=O)[O-] [Example 83]", "Psdm. aerug. Bonn", 50),
]

Consider now this further molecule.
CCN(C(=O)N[C@@H](C(=O)N[C@@H]1C(=O)N2[C@@H]1SC(C)(C)[C@@H]2C(=O)O)c1ccccc1)C(=O)c1ccccc1 [Example 60] yielded MIC of 25

---

Tested on: Proteus vulg. 1017
testDescription: MIC, liquid medium test tube series dilution test
Format: cell-based, Proteus vulgaris
runParameters: Proteus vulg. 1017, 24 hours, 37°C
Protocol: The chemotherapeutic activity of the new penicillins was tested in vivo and in vitro. The in vitro inhibition values (MIC = minimum inhibition concentration (see Tables 1 and 2) were determined in a liquid medium in the test tube series dilution test, with readings being taken after 24 hours' incubation at 37°C. The MIC is indicated by the non-turbid test tube in the dilution series. A complete medium of the following composition was used as the nutrient medium: […]
parameterMeasured: MIC (units/ml)

These solved cases illustrate the format of a correct answer.
# compound, MIC [units/ml]
records = [
    ("CCN(C(=O)N[C@@H](C(=O)N[C@@H]1C(=O)N2[C@@H]1SC(C)(C)[C@@H]2C(=O)O)c1ccccc1)C(=O)c1ccccc1Cl", 25),
    ("CCC(=O)N(C(=O)N[C@@H](C(=O)N[C@@H]1C(=O)N2[C@@H]1SC(C)(C)[C@@H]2C(=O)O)c1ccccc1)c1ccccc1", 200),
    ("CCN(C(=O)N[C@@H](C(=O)N[C@@H]1C(=O)N2[C@@H]1SC(C)(C)[C@@H]2C(=O)O)c1ccccc1)C(=O)c1ccccc1", 25),
    ("CC1(C)S[C@@H]2[C@H](NC(=O)[C@H](NC(=O)N3CCNC3=S)c3ccccc3)C(=O)N2[C@H]1C(=O)O", 50),
    ("CN(C(=O)N[C@@H](C(=O)N[C@@H]1C(=O)N2[C@@H]1SC(C)(C)[C@@H]2C(=O)O)c1ccccc1)C(=O)c1c(Cl)cccc1Cl", 3.1),
    ("C=CCN(C(C)=O)C(=O)N[C@@H](C(=O)N[C@@H]1C(=O)N2[C@@H]1SC(C)(C)[C@@H]2C(=O)O)c1ccccc1 [Example 1]", 400),
]

(P) Cc1ccc(C(NC(=O)N(C)C(=O)c2ccccc2F)C(=O)N[C@@H]2C(=O)N3[C@@H]2SC(C)(C)[C@@H]3C(=O)O)cc1 (stereo partly drawn)
(Q) CSc1ccc(C(NC(=O)N2CCNC2=O)C(=O)N[C@@H]2C(=O)N3[C@@H]2SC(C)(C)[C@@H]3C(=O)O)cc1 (stereo partly drawn) [Example 54]
Data request: // select label with min value of measured MIC from [ P , Q ] Please indicate the selected item by its label.
Data returned: P

---

Item-by-item account of MIC
Test system: Klebsiella 63
testDescription: MIC, liquid medium test tube series dilution test
Format: cell-based
runParameters: Klebsiella 63, 24 hours, 37°C

# molecule, MIC
rows = [
    ("COC(=O)N(C)C(=O)N[C@H](C(=O)N[C@@H]1C(=O)N2[C@@H]1SC(C)(C)[C@@H]2C(=O)O)c1c(Cl)cccc1Cl [Example 8]", "> 500 units/ml"),
    ("Cc1ccc(C(NC(=O)N(C)C(=O)N(C)C)C(=O)N[C@@H]2C(=O)N3[C@@H]2SC(C)(C)[C@@H]3C(=O)O)cc1 (stereo partly drawn) [Example 119]", "> 400 units/ml"),
]

Consider now this further molecule.
CN(C(=O)NC(C(=O)N[C@@H]1C(=O)N2[C@@H]1SC(C)(C)[C@@H]2C(=O)O)c1c(Cl)cccc1Cl)C(=O)c1ccccc1 (stereo partly drawn) [Example 31] yielded MIC of 100-500 units/ml

---

Tested on: Psdm. aerug. Walter
testDescription: MIC, liquid medium test tube series dilution test
Assay type: cell-based, Pseudomonas aerug.
runParameters: 24 hours, 37°C
parameterMeasured: MIC (units/ml)

# molecule, displayUnit, MIC
rows = [
    ("CN(C(=O)C=Cc1ccccc1)C(=O)N[C@@H](C(=O)N[C@@H]1C(=O)N2[C@@H]1SC(C)(C)[C@@H]2C(=O)O)c1ccccc1 [Example 63]", "units/ml", 12.5),
    ("CN(C)C(=O)N(C)C(=O)N[C@@H](C(=O)N[C@@H]1C(=O)N2[C@@H]1SC(C)(C)[C@@H]2C(=O)O)c1ccccc1 [Example 94]", "units/ml", 100),
]

(I) CC(=O)N(C)C(=O)NC(C(=O)N[C@@H]1C(=O)N2[C@@H]1SC(C)(C)[C@@H]2C(=O)O)c1ccc(C)cc1 (some centres unmarked) [Example 118]
(II) Cc1ccc(C(=O)N(C)C(=O)N[C@@H](C(=O)N[C@@H]2C(=O)N3[C@@H]2SC(C)(C)[C@@H]3C(=O)O)c2ccccc2)cc1[N+](=O)[O-] [Example 70]
Data request: // select label with min value of measured MIC from [ I , II ] Please indicate the selected item by its label.
Data returned: II

---

Tested on: E. coli C 165
testDescription: MIC, liquid medium test tube series dilution test
Assay type: cell-based
runParameters: E. coli C 165, 24 hours, 37°C
Item-by-item account of MIC

CNC(=O)N(C)C(=O)N[C@@H](C(=O)N[C@@H]1C(=O)N2[C@@H]1SC(C)(C)[C@@H]2C(=O)O)c1ccccc1 yielded MIC of 4-20 units/ml

CC1(C)S[C@@H]2[C@H](NC(=O)[C@H](NC(=O)N3CCNC3=O)c3ccccc3)C(=O)N2[C@H]1C(=O)O [Example 52] yielded MIC of 12,5 units/ml

CN(C(=O)NC(C(=O)N[C@@H]1C(=O)N2[C@@H]1SC(C)(C)[C@@H]2C(=O)O)c1c(Cl)cccc1Cl)C(=O)c1ccccc1 (some centres unmarked) [Example 32] yielded MIC of 20-100 units/ml

COC(=O)N(C)C(=O)NC(C(=O)N[C@@H]1C(=O)N2[C@@H]1SC(C)(C)[C@@H]2C(=O)O)c1c(Cl)cccc1Cl (some centres unmarked) yielded MIC of 100-500 units/ml

C=CCOC(=O)N(C)C(=O)N[C@@H](C(=O)N[C@@H]1C(=O)N2[C@@H]1SC(C)(C)[C@@H]2C(=O)O)c1ccccc1 [Example 30] yielded MIC of 20-100 units/ml

Cc1noc(C)c1C(=O)N(C)C(=O)N[C@@H](C(=O)N[C@@H]1C(=O)N2[C@@H]1SC(C)(C)[C@@H]2C(=O)O)c1ccccc1 yielded MIC of 4-20 units/ml

CN(C(=O)CCCCl)C(=O)NC(C(=O)N[C@@H]1C(=O)N2[C@@H]1SC(C)(C)[C@@H]2C(=O)O)c1cccs1 (some centres unmarked) yielded MIC of 4-20 units/ml

CN(C(=O)CCCl)C(=O)NC(C(=O)N[C@@H]1C(=O)N2[C@@H]1SC(C)(C)[C@@H]2C(=O)O)C1CC=CCC1 (some centres unmarked) yielded MIC of 100-500 units/ml

CSc1ccc(C(NC(=O)N(C)C(=O)c2ccccc2)C(=O)N[C@@H]2C(=O)N3[C@@H]2SC(C)(C)[C@@H]3C(=O)O)cc1 (some centres unmarked) yielded MIC of 4-20 units/ml

COC(=O)N(C)C(=O)NC(C(=O)N[C@@H]1C(=O)N2[C@@H]1SC(C)(C)[C@@H]2C(=O)O)c1cccs1 (some centres unmarked) yielded MIC of 20-100 units/ml

C=CCN(C(=O)NC(C(=O)N[C@@H]1C(=O)N2[C@@H]1SC(C)(C)[C@@H]2C(=O)O)c1cccs1)C(=O)c1ccccc1 (some centres unmarked) yielded MIC of 20-100 units/ml

Measured values drawn from patent US3974140A for this set.
